# method.summary: binders of probe aHhip on microarray, primary screen, stem cell growth factor project, biochemical, small-molecule microarray, fluorescence 635/667 (AID 1087);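 note: score merges spot fluorescence at 667nm with spot signal to noise ratio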
# condition.set: higher = more signal
assay.metric: composite z-score

[
  {
    "compound": "COc1ccc([Si](C)(C)[C@H]2[C@H](CCO)O[C@@]3(C(=O)N(Cc4ccccc4)c4ccc(NC(=O)[C@H](C)O)cc43)[C@@H]2C)cc1",
    "measured.value": 0.126
  },
  {
    "compound": "C=CCNC(=O)[C@H]1[C@@H]2C(=O)O[C@@H](c3ccccc3)[C@@H](c3ccccc3)N2[C@@H](c2ccc(OCCO)cc2)[C@]12C(=O)N(C(=O)OCCOC)c1ccc(C#CCNC(N)=O)cc12",
    "measured.value": -0.246
  },
  {
    "compound": "CCCCC(=C=CC[C@H](O)c1ccccc1OCCO)CCO",
    "measured.value": 0.0749
  },
  {
    "compound": "CS(=O)(=O)CCOC(=O)C1=CC(CCCO)=CC(C2CC2)N(Cc2sc3ccccc3c2Cl)C=C1C(=O)OCCS(C)(=O)=O (centres undefined)",
    "measured.value": -0.134
  }
]
